ASSAYED_TARGET: UniProtKB P34972
Sequence (P34972 whole entry): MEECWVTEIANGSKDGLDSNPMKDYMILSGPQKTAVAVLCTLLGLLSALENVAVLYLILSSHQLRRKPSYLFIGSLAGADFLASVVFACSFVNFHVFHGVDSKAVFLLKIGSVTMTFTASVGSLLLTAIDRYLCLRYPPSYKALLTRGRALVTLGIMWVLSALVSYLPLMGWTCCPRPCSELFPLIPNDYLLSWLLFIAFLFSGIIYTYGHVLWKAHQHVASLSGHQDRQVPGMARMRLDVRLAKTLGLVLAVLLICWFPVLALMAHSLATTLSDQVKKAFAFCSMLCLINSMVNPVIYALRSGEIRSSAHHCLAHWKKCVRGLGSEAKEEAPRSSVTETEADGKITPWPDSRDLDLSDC
PROTOCOL_DESCRIPTION: Agonism of CB2 by detection of cAMP using HTRF
Format: cell-based
MEASUREMENT_SETUP: CHO cells stably expressing CB2 receptor, cAMP HTRF, forskolin-stimulated; average if tested more than once; read-out: hCB2 CHO EC50
READOUT_LABEL: EC50 (nM)

[[record]]
compound = "O=C(NC12CC(C1)C2)c1nn(-c2c[n+]([O-])ccn2)c2c1CC1CCC2O1 (stereo not drawn)"
readout_label = "EC50"
unit_of_measure = "nM"
quantitative_result = 0.05

[[record]]
compound = "CC(C)(C)c1nnc(-c2nn(-c3cnccn3)c3c2CC2CCC3O2)o1 (stereo not drawn)"
readout_label = "EC50"
unit_of_measure = "nM"
quantitative_result = 0.26

[[record]]
compound = "O=C(NC12CC3CC(CC1C3)C2)c1nn(-c2c[n+]([O-])ccn2)c2c1CC1CCC2O1 (stereo not drawn)"
readout_label = "EC50"
unit_of_measure = "nM"
quantitative_result = 0.02

[[record]]
compound = "CC(C)(C)NC(=O)c1nn(-c2ccc(F)cc2F)c2c1C1CCC(C2)O1 (stereo not drawn)"
readout_label = "EC50"
unit_of_measure = "nM"
quantitative_result = 559

[[record]]
compound = "CC(C)(C)NC(=O)c1nn(-c2c[n+]([O-])ccn2)c2c1CC1CCC2O1 (stereo not drawn)"
readout_label = "EC50"
unit_of_measure = "nM"
quantitative_result = 0.33

[[record]]
compound = "O=C(NC1(C(F)(F)F)CCC1)c1nn(-c2cnccn2)c2c1CC1CCC2O1 (stereo not drawn)"
readout_label = "EC50"
unit_of_measure = "nM"
quantitative_result = 0.04

[[record]]
compound = "O=C(NC1(C(F)(F)F)CC1)c1nn(-c2cnccn2)c2c1CC1CCC2O1 (stereo not drawn)"
readout_label = "EC50"
unit_of_measure = "nM"
quantitative_result = 0.24

[[record]]
compound = "O=C(NC12CC3CC(CC1C3)C2)c1nn(-c2ccc(F)cc2F)c2c1CC1CCC2O1 (stereo not drawn)"
readout_label = "EC50"
unit_of_measure = "nM"
quantitative_result = 0.08

[[record]]
compound = "CC(C)(C)[C@@H](CO)NC(=O)c1nn(-c2c[n+]([O-])ccn2)c2c1C[C@H]1CC[C@@H]2O1"
readout_label = "EC50"
unit_of_measure = "nM"
quantitative_result = 0.09


* * *

The compounds listed here are annotated with their Emax.
ASSAYED_TARGET: hCB1 receptor (Homo sapiens)
Sequence (P21554 whole entry): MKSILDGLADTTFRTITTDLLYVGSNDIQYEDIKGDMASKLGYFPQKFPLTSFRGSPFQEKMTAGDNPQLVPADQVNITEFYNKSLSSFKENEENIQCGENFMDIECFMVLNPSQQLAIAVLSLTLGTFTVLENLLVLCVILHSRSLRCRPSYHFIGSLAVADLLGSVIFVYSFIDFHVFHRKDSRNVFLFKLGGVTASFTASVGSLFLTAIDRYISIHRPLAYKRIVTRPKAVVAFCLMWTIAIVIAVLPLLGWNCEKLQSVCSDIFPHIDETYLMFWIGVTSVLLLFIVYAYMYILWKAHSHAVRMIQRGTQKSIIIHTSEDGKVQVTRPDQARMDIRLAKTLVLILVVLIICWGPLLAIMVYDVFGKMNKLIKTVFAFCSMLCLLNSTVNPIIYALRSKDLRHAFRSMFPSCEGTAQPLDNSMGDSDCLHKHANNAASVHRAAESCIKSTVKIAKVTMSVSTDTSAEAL
PROTOCOL_DESCRIPTION: Agonism of CB1 by detection of cAMP using HTRF
Assay type: cell-based
MEASUREMENT_SETUP: CHO cells stably expressing CB1 receptor; normalized to DMSO and maximal activation (5 nM CP55940)
READOUT_LABEL: Emax

[[record]]
compound = "CC(C)(C)c1cnc(-c2nn(-c3c[n+]([O-])ccn3)c3c2CC2CCC3O2)s1 (stereo not shown)"
result = "95.5%"

[[record]]
compound = "CC(C)(C)[C@@H](CO)NC(=O)c1nn(-c2cnccn2)c2c1C[C@H]1CC[C@@H]2O1"
result = "111%"

[[record]]
compound = "CCC(C)(C)c1noc(-c2nn(-c3c[n+]([O-])ccn3)c3c2CC2CCC3O2)n1 (stereo not shown)"
result = "98.9%"

[[record]]
compound = "O=C(NC12CCC(CC1)CC2)c1nn(-c2cnccn2)c2c1CC1CCC2O1 (stereo not shown)"
result = "103%"

